- Method notes: Antioxidant activity assessed as DPPH radical scavenging activity incubated under dark condition for 30 mins
- Type: functional
Metric name: IC50 (µg/mL)

INSERT INTO measurements (molecule, result_units, relational_operator, data_value) VALUES
  ('Cc1cccc2c3c([nH]c12)C1=C(C#N)C(=O)NC1(C1C(=O)Nc2ccccc21)CC3 (centres undefined)', 'µg/mL', '=', 28.918),
  ('Cc1ccc2[nH]c3c(c2c1)CCC1(C2C(=O)Nc4ccccc42)NC(=O)C(C#N)=C31 (centres undefined)', 'µg/mL', '=', 41.934),
  ('Cc1ccc2c3c([nH]c2c1)C1=C(C#N)C(=O)NC1(C1C(=O)c2cccc4cccc1c24)CC3 (centres undefined)', 'µg/mL', '=', 28.251),
  ('Cc1cccc2c3c([nH]c12)C1=C(C#N)C(=O)NC1(C1c2ccccc2-c2nc4ccccc4nc21)CC3 (centres undefined)', 'µg/mL', '=', 33.936),
  ('Cc1ccc2[nH]c3c(c2c1)CCC1(C2c4ccccc4-c4nc5ccccc5nc42)NC(=O)C(C#N)=C31 (centres undefined)', 'µg/mL', '=', 42.31),
  ('Cc1ccc2c3c([nH]c2c1)C1=C(C#N)C(=O)NC1(C1C(=O)Nc2ccc(Cl)cc21)CC3 (centres undefined)', 'µg/mL', '=', 13.931),
  ('Cc1ccc2c3c([nH]c2c1)C1=C(C#N)C(=O)NC1(C1c2ccccc2-c2nc4cc(C)c(C)cc4nc21)CC3 (centres undefined)', 'µg/mL', '=', 40.037),
  ('Cc1cccc2c3c([nH]c12)C1=C(C#N)C(=O)NC1(C1C(=O)c2cccc4cccc1c24)CC3 (centres undefined)', 'µg/mL', '>', 100),
  ('O=C1O[C@H]([C@@H](O)CO)C(O)=C1O [ASCORBIC ACID]', 'µg/mL', '=', 13.228);
